EXPERIMENT_NOTES: Toxicity liver stage against HepG2, at 10uM
Format: cell-based
Set-up: test concentration 10 uM, cell line HepG2-A16-CD81EGFP
CONDITION_DETAILS: human, HepG2-A16-CD81EGFP cells; read-out: INHIBITION
Catalogue of molecules with associated cytotoxicity at 10 µM
// units = %; emit number, no label

Study these solved cases before continuing.
GET /values?readout=cytotoxicity at 10 µM&item= CCC(CO)(CO)NC(=O)C1CCC(=O)N(CCc2ccccc2)C1 (configuration not stated)
-2.78

GET /values?readout=cytotoxicity at 10 µM&item= Cc1cccnc1NCCNc1cc(C(C)C)nc2ccnn12
-5.29

GET /values?readout=cytotoxicity at 10 µM&item= CC(=O)c1cccc(OCCCC(=O)N(C)C2CCN(C)CC2)c1
3.07

Continuing:
GET /values?readout=cytotoxicity at 10 µM&item= C[C@H](O)c1cnn(-c2ccccc2)c1
0.503

GET /values?readout=cytotoxicity at 10 µM&item= CCCn1nc(C(=O)N(C)Cc2nnc3n2CCC3)ccc1=O
1.77

GET /values?readout=cytotoxicity at 10 µM&item= CCn1cnnc1Cc1nc2c([nH]1)CC(c1ccc(Cl)cc1)CNC2=O (configuration not stated)
-48.9

GET /values?readout=cytotoxicity at 10 µM&item= O=C(c1cccs1)N1CCC2(CC1)CC(Oc1ccccc1)CO2 (configuration not stated)
15.4
